test system: HepG2; assay: cytotoxicity call (relative viability < 0.9); conditions: 10 µM
In all, about 39,000 compounds went through this assay and about 3,300 (8.5%) were called active. For the sample, actives were picked, then their nearest neighbours and some compounds at random.
Permitted responses: yes (1) for active, no (0) for inactive

molecule smiles	assigned class
C[C@@H]1CN([C@@H](C)CO)C(=O)c2cc(NS(=O)(=O)c3cccs3)ccc2O[C@@H](C)CCCCO[C@H]1CN(C)C(=O)Nc1cccc2ccccc12	no (0)
C[C@H]1CCCCO[C@H](CN(C)C(=O)Nc2cccc3ccccc23)[C@@H](C)CN([C@@H](C)CO)C(=O)c2cc(NS(=O)(=O)c3cccs3)ccc2O1	yes (1)
C[C@H]1CCCCO[C@@H](CN(C)C(=O)Nc2cccc3ccccc23)[C@@H](C)CN([C@@H](C)CO)C(=O)c2cc(NS(=O)(=O)c3cccs3)ccc2O1	no (0)
COc1ccc(C#Cc2ccc3c(c2)O[C@H](CN(C)C(C)=O)[C@@H](C)CN([C@@H](C)CO)S3(=O)=O)cc1	no (0)
C[C@H](CO)N1C[C@H](C)[C@H](CN(C)C(=O)Nc2ccc(C(F)(F)F)cc2)Oc2ccc(NC(=O)Nc3ccc4c(c3)OCO4)cc2C1=O	no (0)
C[C@@H]1CCCCO[C@H](CN(C)C(=O)Nc2cccc3ccccc23)[C@@H](C)CN([C@H](C)CO)C(=O)c2cc(NS(=O)(=O)c3cccs3)ccc2O1	no (0)
COC(=O)[C@]12CCC(C)(C)C[C@H]1[C@H]1C(=O)C=C3[C@@]4(C)C=C(C#N)C(=O)C(C)(C)[C@@H]4CC[C@@]3(C)[C@]1(C)CC2	yes (1)
CC(C)NC(=O)Nc1cccc2c1O[C@@H](CN(C)Cc1ccc(Oc3ccccc3)cc1)[C@@H](C)CN([C@H](C)CO)C2=O	no (0)
C[C@@H]1CCCCO[C@H](CN(C)C(=O)Nc2cccc3ccccc23)[C@H](C)CN([C@H](C)CO)C(=O)c2cc(NS(=O)(=O)c3cccs3)ccc2O1	yes (1)
Cc1ccc(-c2cnc3c(c2)C(=O)N([C@H](C)CO)C[C@H](C)[C@@H](CN(C)C(=O)Cc2cccnc2)O3)cc1	no (0)

// param item: `C[C@@H]1CN([C@@H](C)CO)C(=O)c2cc(NC(=O)Nc3ccc(F)cc3)ccc2O[C@@H](C)CCCCO[C@@H]1CN(C)C(=O)c1ccccc1` ; yields the recorded call
no (0)

// return assay outcome for `C[C@@H]1CN([C@@H](C)CO)C(=O)c2cccc(NC(=O)Nc3ccc(C(F)(F)F)cc3)c2O[C@@H]1CN(C)S(C)(=O)=O`
no (0)

Which outcome was assigned to `C[C@@H]1CN([C@@H](C)CO)C(=O)Cc2cc(NC(=O)C3CC3)ccc2O[C@H]1CN(C)S(=O)(=O)c1cccs1` in this test?
no (0)

====

system: HepG2; assay: cytotoxicity call (relative viability < 0.9); details: 10 µM
The whole screen tested about 39,000 compounds, of which about 3,300 (8.5%) were called active. Only a selection was taken, and actives are over-represented in it overall.
Pick from Y = active, N = inactive when you respond.

molecule smiles	assigned class
C[C@@H]1CN([C@H](C)CO)C(=O)CCCn2nncc2CO[C@H]1CN(C)C(=O)Nc1ccc(C(C)(C)C)cc1	N
S=c1cc(-c2ccccc2)oc(-c2ccccc2)c1	Y

Called result for `CC(C)NC(=O)N(C)C[C@@H]1Oc2c(NC(=O)C3CCOCC3)cccc2C(=O)N([C@H](C)CO)C[C@@H]1C`
N

Recorded test call requested for `COc1cccc(NC(=O)N2C[C@@H](O)COC[C@@H]3O[C@H](CC(=O)NCCCN4CCOCC4)CC[C@H]32)c1`
N
